Target: Amine oxidase [flavin-containing] B (Homo sapiens)
Sequence (P27338 whole entry): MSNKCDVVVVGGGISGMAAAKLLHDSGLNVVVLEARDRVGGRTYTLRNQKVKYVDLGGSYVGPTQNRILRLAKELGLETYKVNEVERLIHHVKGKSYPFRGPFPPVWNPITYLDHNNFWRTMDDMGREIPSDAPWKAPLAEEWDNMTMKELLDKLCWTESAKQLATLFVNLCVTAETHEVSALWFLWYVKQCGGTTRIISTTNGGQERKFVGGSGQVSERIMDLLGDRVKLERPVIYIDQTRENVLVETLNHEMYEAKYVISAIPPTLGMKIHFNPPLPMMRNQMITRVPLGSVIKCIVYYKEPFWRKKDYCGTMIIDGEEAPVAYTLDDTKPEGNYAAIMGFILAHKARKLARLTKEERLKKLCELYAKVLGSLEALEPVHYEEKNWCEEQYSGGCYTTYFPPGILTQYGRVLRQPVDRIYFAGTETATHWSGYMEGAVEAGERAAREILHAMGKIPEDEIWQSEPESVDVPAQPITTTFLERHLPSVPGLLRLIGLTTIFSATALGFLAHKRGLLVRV
Assay: Inhibition of human MAO-B using benzylamine as substrate by fluorometric assay
readout-type: IC50 (nM)

>>> df
                               given_smiles                               target_desc  readout_type  endpoint_unit  measured_number
0  C#CCN1C(=O)S/C(=C\c2ccc(N3CCN(c4ccc(F)cc4)CC3)cc2)C1=O  Amine oxidase [flavin-containing] B (Homo sapiens)          IC50             nM             1360
1  C#CCN1C(=O)S/C(=C\c2ccc(N3CCN(c4ccccc4OCC)CC3)cc2)C1=O  Amine oxidase [flavin-containing] B (Homo sapiens)          IC50             nM             1740
2  C=CCN1C(=O)S/C(=C\c2ccc(N3CCN(c4ccccc4OCC)CC3)cc2)C1=O  Amine oxidase [flavin-containing] B (Homo sapiens)          IC50             nM             5580
3  O=C1S/C(=C\c2ccc(N3CCN(C4CCCCC4)CC3)cc2)C(=O)N1Cc1ccccc1  Amine oxidase [flavin-containing] B (Homo sapiens)          IC50             nM             2740
4  O=C1S/C(=C\c2ccc(N3CCN(c4ccc(F)cc4)CC3)cc2)C(=O)N1Cc1ccccc1  Amine oxidase [flavin-containing] B (Homo sapiens)          IC50             nM              479
5  CCOc1ccccc1N1CCN(c2ccc(/C=C3\SC(=O)NC3=O)cc2)CC1  Amine oxidase [flavin-containing] B (Homo sapiens)          IC50             nM             2730

(a) O=C1NC(=O)/C(=C/c2ccc(N3CCN(c4ccc(F)cc4)CC3)cc2)S1
(b) C#CCN1C(=O)S/C(=C\c2ccc(N3CCN(c4ccccc4)CC3)cc2)C1=O
(c) C#CCN1C(=O)S/C(=C\c2ccc(N3CCN(C4CCCCC4)CC3)cc2)C1=O
(d) CCOc1ccccc1N1CCN(c2ccc(/C=C3\SC(=O)N(Cc4ccccc4)C3=O)cc2)CC1
[in] Which order do these items take when sorted by rising IC50? List them. Could you list the labels in the order requested?
[out] c, d, b, a

* * *

Organism: Homo sapiens
Assay: Selectivity index, ratio of IC50 for inhibition of human MAO-B using benzylamine as substrate to IC50 for inhibition of human MAO-A using kynuramine as substrate
readout-type: Ratio IC50

>>> df
                               given_smiles  measured_number
0  C#CCN1C(=O)S/C(=C\c2ccc(N3CCN(c4ccc(F)cc4)CC3)cc2)C1=O             3.57

(P) O=C1NC(=O)/C(=C/c2ccc(N3CCN(c4ccc(F)cc4)CC3)cc2)S1
(Q) O=C1NC(=O)/C(=C/c2ccc(N3CCN(c4ccccc4)CC3)cc2)S1
(R) C=CCN1C(=O)S/C(=C\c2ccc(N3CCN(c4ccccc4OCC)CC3)cc2)C1=O
[in] Form: Sort by [Ratio IC50] Order [ ascending ] List the labels in the requested order.
[out] P, R, Q
(P: 2.83, R: 6.87, Q: 16.6)

(1) CCOc1ccccc1N1CCN(c2ccc(/C=C3\SC(=O)NC3=O)cc2)CC1
(2) C#CCN1C(=O)S/C(=C\c2ccc(N3CCN(C4CCCCC4)CC3)cc2)C1=O
[in] Select one. Lower Ratio IC50: 1 or 2 Your choice should be expressed through its label.
[out] 2
(2: 0.49, 1: 2)

(a) O=C1NC(=O)/C(=C/c2ccc(N3CCN(C4CCCCC4)CC3)cc2)S1
(b) C#CCN1C(=O)S/C(=C\c2ccc(N3CCN(c4ccccc4OCC)CC3)cc2)C1=O
(c) C=CCN1C(=O)S/C(=C\c2ccc(N3CCN(c4ccc(F)cc4)CC3)cc2)C1=O
[in] Place the items in sequence of falling Ratio IC50. Please list the labels in the order you were asked to rank them.
[out] b, a, c
(b: 7.96, a: 2.85, c: 0.22)

(I) CCOc1ccccc1N1CCN(c2ccc(/C=C3\SC(=O)N(Cc4ccccc4)C3=O)cc2)CC1
(II) O=C1S/C(=C\c2ccc(N3CCN(c4ccccc4)CC3)cc2)C(=O)N1Cc1ccccc1
(III) O=C1S/C(=C\c2ccc(N3CCN(C4CCCCC4)CC3)cc2)C(=O)N1Cc1ccccc1
[in] // sort entries: Ratio IC50, high to low When ranking, write the labels in the order the request describes.
[out] III, II, I
(III: 5.28, II: 3.36, I: 2.11)

* * *

Target: Amine oxidase [flavin-containing] B (Homo sapiens)
Test: Inhibition of MAO-B (unknown origin)
pIC50: −log10 of the molar value.
readout-type: pIC50

(a) CC(C)(C)c1ccc(S(=O)(=O)c2ccc(N3CCN(C(c4ccccc4)c4ccccc4)CC3)cc2)cc1
(b) COc1ccc(N2CCN(Cc3nnc(SCC(=O)c4ccc(Cl)cc4)n3C)CC2)cc1
[in] Between a and b , which one shows the larger pIC50 value? Your choice should be expressed through its label.
[out] b

* * *

Organism: Homo sapiens
Experiment: Selectivity index, ratio of IC50 for inhibition of human MAO-B using benzylamine as substrate to IC50 for inhibition of human MAO-A using kynuramine as substrate
A collection of compounds and their measured Ratio IC50

>>> df
                               given_smiles  readout_type  result
0  C#CCN1C(=O)S/C(=C\c2ccc(N3CCN(c4ccccc4)CC3)cc2)C1=O    Ratio IC50    2.02

[in] Please give the measured Ratio IC50 for this compound: C=CCN1C(=O)S/C(=C\c2ccc(N3CCN(c4ccccc4)CC3)cc2)C1=O
[out] > 2.66

[in] So what does the record say about Ratio IC50 for C=CCN1C(=O)S/C(=C\c2ccc(N3CCN(C4CCCCC4)CC3)cc2)C1=O ?
[out] > 5.79
